// data source = ChEMBL document CHEMBL4725427

Method: Metabolic stability in human Hepatocyte assessed as half life
Assay type: ADME, tissue-based
Condition info: hepatocytes
Quantity kind: half-life (min)
Give bare numbers, in min.

Entry "O=C(c1nc2cccnc2n1-c1ccc(Cl)c(Cl)c1)N1CC(F)(F)C1" , half-life reported as 49.4

====

Target or system: 3',5'-cyclic-AMP phosphodiesterase 4B (Homo sapiens)
Sequence (Q07343 whole entry): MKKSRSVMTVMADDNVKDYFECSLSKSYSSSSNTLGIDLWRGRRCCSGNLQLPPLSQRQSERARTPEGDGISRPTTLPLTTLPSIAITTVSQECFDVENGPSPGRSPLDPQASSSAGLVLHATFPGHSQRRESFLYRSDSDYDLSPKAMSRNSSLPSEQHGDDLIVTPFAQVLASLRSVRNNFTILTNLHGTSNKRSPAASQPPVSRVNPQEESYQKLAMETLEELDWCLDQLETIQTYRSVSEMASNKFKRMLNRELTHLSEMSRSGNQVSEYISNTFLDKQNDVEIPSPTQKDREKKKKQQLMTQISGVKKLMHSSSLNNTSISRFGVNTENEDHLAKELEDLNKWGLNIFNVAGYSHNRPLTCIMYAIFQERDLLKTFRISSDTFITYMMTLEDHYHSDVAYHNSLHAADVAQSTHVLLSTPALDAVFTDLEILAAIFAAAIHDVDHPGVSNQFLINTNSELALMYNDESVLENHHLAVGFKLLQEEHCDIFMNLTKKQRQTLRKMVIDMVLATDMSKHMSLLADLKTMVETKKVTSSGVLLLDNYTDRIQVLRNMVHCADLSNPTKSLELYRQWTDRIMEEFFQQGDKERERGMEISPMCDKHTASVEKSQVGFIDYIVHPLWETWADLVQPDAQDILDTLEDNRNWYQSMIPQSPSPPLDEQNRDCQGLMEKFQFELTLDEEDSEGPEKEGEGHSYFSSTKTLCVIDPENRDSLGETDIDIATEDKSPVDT
Method: Inhibition of recombinant human C-terminal His-tagged N-terminal GST-tagged PDE4B2 expressed in baculovirus infected Sf9 cells by radioligand binding assay
Exercise: for every item that follows, state its recorded IC50.
Give bare numbers, in µM.

Use the examples below as a reference point.
Entry "O=C(c1nc2ccccc2n1-c1ccc(Cl)c(Cl)c1)N1CC(F)C1" , IC50 reported as 2.4

Entry "O=C(NC1CC1)c1nn2ccccc2c1-c1ccc(Cl)c(Cl)c1" , IC50 reported as 4.2

Entry "O=C(c1nc2cccnc2n1-c1ccc(Cl)c(Cl)c1)N1CC(F)(F)C1" , IC50 reported as 0.14

Query molecule follows.
Entry Cc1ccc(-n2c(C(=O)NC3CC(F)C3)cc3cccnc32)cc1Cl (centres undefined) , IC50 reported as 9.4

====

Target or system: 5-hydroxytryptamine receptor 2C (Homo sapiens, UniProt P28335)
Sequence (P28335 whole entry): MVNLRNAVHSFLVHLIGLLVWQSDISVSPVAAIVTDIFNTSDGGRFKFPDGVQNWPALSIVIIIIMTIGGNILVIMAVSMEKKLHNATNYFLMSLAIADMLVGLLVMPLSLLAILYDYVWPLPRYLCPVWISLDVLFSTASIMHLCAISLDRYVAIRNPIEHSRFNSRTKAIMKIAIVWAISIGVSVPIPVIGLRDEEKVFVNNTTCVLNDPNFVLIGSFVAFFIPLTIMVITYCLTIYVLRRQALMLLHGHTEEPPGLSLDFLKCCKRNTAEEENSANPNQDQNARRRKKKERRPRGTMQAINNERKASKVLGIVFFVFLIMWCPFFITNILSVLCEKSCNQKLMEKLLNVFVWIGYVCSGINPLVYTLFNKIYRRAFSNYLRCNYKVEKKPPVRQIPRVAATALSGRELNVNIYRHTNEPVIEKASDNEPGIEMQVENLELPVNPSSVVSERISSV
pIC50: −log10 of the molar value.
Quantity kind: pIC50

Entry "O=C(c1nc2cccnc2n1-c1ccc(Cl)c(Cl)c1)N1CC(F)(F)C1" , pIC50 reported as < 5.00

====

Method: Protein binding in human plasma assessed as unbound fraction
Assay type: ADME, cell-free
Quantity kind: fraction unbound
Answers are plain numbers.

Entry "O=C(c1cc2cccnc2n1-c1cc(F)c(Cl)c(F)c1)N1CC(F)(F)C1" , fraction unbound reported as 0.113

Entry "N#Cc1c(F)cc(-n2c(C(=O)NC3CC3)cc3cccnc32)cc1F" , fraction unbound reported as 0.235

Entry "Cc1ccc(-n2c(C(=O)NC3CC3)cc3cccnc32)cc1Cl" , fraction unbound reported as 0.011

Respectfully, I request fraction unbound for each entry included below.
1. O=C(c1cc2cccnc2n1-c1ccnc(F)c1)N1CC(F)C1
2. COc1c(F)cc(-n2c(C(=O)N3CC(F)C3)cc3cccnc32)cc1F
3. O=C(NC1CC1)c1cc2cccnc2n1-c1ccc(Cl)c(Cl)c1
4. COc1ncc(-n2c(C(=O)N3CC(F)C3)cc3cccnc32)cc1Cl
5. O=C(c1nc2cccnc2n1-c1ccc(Cl)c(Cl)c1)N1CC(F)(F)C1
6. Cc1ccc(-n2c(C(=O)NC3CC3)nc3cccnc32)cc1Cl

[0.474, 0.302, 0.026, 0.049, 0.038, 0.085]
